# TEST: Pharmacokinetics in Sprague Dawley rats, single subcutaneous or intravenous dose (incl. 10, 30, 100 nmol/kg dose response)
# Format: in vivo
# CONDITION_NOTES: rat, plasma, sc; dose response, single subcutaneous dose 10 nmol/kg, male Sprague Dawley rats, mean; read-out: AUC0-inf
*1 amine or outer side, *2 acyl side, *3 side chain or, on linkers, in order; H or OH if unused. Side-chain parts run from the residue outwards. [ ]: non-standard residue; d: D form. The star is where a group is joined. C20 diacid = O=C(O)CCCCCCCCCCCCCCCCCCC(=O)*; γGlu = O=C(O)[C@H](CCC(=O)[*:2])N[*:1]; εLys = N[C@@H](CCCCN[*:1])C(=O)[*:2]; pGlu = O=C1CC[C@@H](C(=O)O)N1; αMeL = CC(C)C[C@](C)(N)C(=O)O; AEEA = NCCOCCOCC(=O)O; Aib = CC(C)(N)C(=O)O
MEASURED_ATTRIBUTE: AUC0-inf (µM·h)

SUBSTANCE	AUC0-inf / µM·h
[pGlu]GSPSGIVTS[αMeL]DVPT[Aib][αMeL]LQKILEQERAEKARQQAK([γGlu-AEEA-εLys-C20 diacid])EAAEILAQV-NH2 [SEQ ID NO: 22]	2.85

(I) Ac-GSPSIVTS[αMeL]DVPT[Aib][αMeL]LQKILEQERAEKARQQAK([γGlu-AEEA-εLys-C20 diacid])EAAEILAQV-NH2 [SEQ ID NO: 1]
(II) {C20 diacid-εLys-AEEA-γGlu}-GSPSIVTS[αMeL]DVPT[Aib][αMeL]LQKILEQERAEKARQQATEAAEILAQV-NH2 [SEQ ID NO: 25]
INPUT: Task for the reader: decide whether I or II has the larger AUC0-inf. Identify your pick by its label.
OUTPUT: I
(I: 2.05 µM·h, II: 1.04 µM·h)

Cited source: patent US20250163119A1
